Data provenance is the supplement of paper PMC9112550.

- Test system: Escherichia coli TOP10
- testDetails: shrunken log2 fold change of peptide-encoding DNA abundance (4.5 h post-induction vs induction); higher = less antimicrobial activity (less host growth inhibition)
- testParameters: time post-induction: 4.5 h; library: site-saturation at positions 5, 18, 19, 20

recordSequence: RRIRKRPPRLPRPRPRPTGPPRP
testTarget: Escherichia coli TOP10
shrunken log2 fold change: 0.588
--
recordSequence: RRIRWRPPRLPRPRPRPPPVPRP
testTarget: Escherichia coli TOP10
shrunken log2 fold change: 0.931
--
recordSequence: RRIRQRPPRLPRPRPRPLCKPRP
testTarget: Escherichia coli TOP10
shrunken log2 fold change: -0.406
--
recordSequence: RRIRVRPPRLPRPRPRPLTFPRP
testTarget: Escherichia coli TOP10
shrunken log2 fold change: -0.271
--
recordSequence: RRIRLRPPRLPRPRPRPFDQPRP
testTarget: Escherichia coli TOP10
shrunken log2 fold change: 0.0721
--
recordSequence: RRIRGRPPRLPRPRPRPRAWPRP
testTarget: Escherichia coli TOP10
shrunken log2 fold change: 1.31
--
recordSequence: RRIRERPPRLPRPRPRPDHRPRP
testTarget: Escherichia coli TOP10
shrunken log2 fold change: -0.00204
--
recordSequence: RRIRERPPRLPRPRPRPYQRPRP
testTarget: Escherichia coli TOP10
shrunken log2 fold change: -0.876
--
recordSequence: RRIRMRPPRLPRPRPRPRHNPRP
testTarget: Escherichia coli TOP10
shrunken log2 fold change: -0.0227
--
recordSequence: RRIRYRPPRLPRPRPRPFFFPRP
testTarget: Escherichia coli TOP10
shrunken log2 fold change: -0.253
--
recordSequence: RRIRRRPPRLPRPRPRPVHNPRP
testTarget: Escherichia coli TOP10
shrunken log2 fold change: 0.0641
--
recordSequence: RRIRQRPPRLPRPRPRPVHDPRP
testTarget: Escherichia coli TOP10
shrunken log2 fold change: 0.0147
--
recordSequence: RRIRNRPPRLPRPRPRPKEYPRP
testTarget: Escherichia coli TOP10
shrunken log2 fold change: 0.199
--
recordSequence: RRIRDRPPRLPRPRPRPCQSPRP
testTarget: Escherichia coli TOP10
shrunken log2 fold change: -0.121
--
recordSequence: RRIRLRPPRLPRPRPRPTYVPRP
testTarget: Escherichia coli TOP10
shrunken log2 fold change: -0.591

* * *

- Test system: Escherichia coli TOP10
- testDetails: shrunken log2 fold change of peptide-encoding DNA abundance (4.5 h post-induction vs induction); higher = less antimicrobial activity (less host growth inhibition)
- testParameters: time post-induction: 4.5 h; library: site-saturation at positions 5, 18, 19, 20
Tick y if shrunken log2 fold change is 0.02 or greater. Tick n if shrunken log2 fold change is less than 0.02.

recordSequence: RRIRLRPPRLPRPRPRPEYYPRP
classification: n

recordSequence: RRIRERPPRLPRPRPRPGVPPRP
classification: y

recordSequence: RRIRMRPPRLPRPRPRPSDHPRP
classification: y

recordSequence: RRIRNRPPRLPRPRPRPEFYPRP
classification: n

recordSequence: RRIRIRPPRLPRPRPRPVMNPRP
classification: n

recordSequence: RRIRNRPPRLPRPRPRPYGGPRP
classification: n

recordSequence: RRIRRRPPRLPRPRPRPGFHPRP
classification: y

recordSequence: RRIRIRPPRLPRPRPRPRITPRP
classification: n

recordSequence: RRIRKRPPRLPRPRPRPENFPRP
classification: n

recordSequence: RRIRPRPPRLPRPRPRPCERPRP
classification: y

recordSequence: RRIRWRPPRLPRPRPRPDNQPRP
classification: n

recordSequence: RRIRFRPPRLPRPRPRPTGDPRP
classification: y

recordSequence: RRIRRRPPRLPRPRPRPPHWPRP
classification: y

recordSequence: RRIRIRPPRLPRPRPRPPFDPRP
classification: n

* * *

- System: Escherichia coli TOP10
- testDetails: shrunken log2 fold change of peptide-encoding DNA abundance (4.5 h post-induction vs induction); higher = less antimicrobial activity (less host growth inhibition)
- testParameters: time post-induction: 4.5 h; library: site-saturation at positions 5, 18, 19, 20
sequences and their reported shrunken log2 fold change

recordSequence: RRIRDRPPRLPRPRPRPYVGPRP
shrunken log2 fold change: -0.0122

recordSequence: RRIRCRPPRLPRPRPRPLRDPRP
shrunken log2 fold change: 0.948

recordSequence: RRIRYRPPRLPRPRPRPHRPPRP
shrunken log2 fold change: 0.0424

recordSequence: RRIRTRPPRLPRPRPRPFGYPRP
shrunken log2 fold change: 0.0679

recordSequence: RRIRSRPPRLPRPRPRPALRPRP
shrunken log2 fold change: 0.169

recordSequence: RRIRERPPRLPRPRPRPAFCPRP
shrunken log2 fold change: -0.21

recordSequence: RRIRKRPPRLPRPRPRPDTWPRP
shrunken log2 fold change: 0.35

recordSequence: RRIRNRPPRLPRPRPRPTHEPRP
shrunken log2 fold change: 0.0695

recordSequence: RRIRQRPPRLPRPRPRPRTHPRP
shrunken log2 fold change: 0.167

recordSequence: RRIRVRPPRLPRPRPRPMLKPRP
shrunken log2 fold change: -0.293

recordSequence: RRIRERPPRLPRPRPRPTCRPRP
shrunken log2 fold change: -0.146

recordSequence: RRIRPRPPRLPRPRPRPVEDPRP
shrunken log2 fold change: 0.0885

recordSequence: RRIRSRPPRLPRPRPRPSLPPRP
shrunken log2 fold change: -0.352

recordSequence: RRIRFRPPRLPRPRPRPEVQPRP
shrunken log2 fold change: 0.00737

recordSequence: RRIRTRPPRLPRPRPRPIMEPRP
shrunken log2 fold change: -0.409

* * *

- Tested on: Escherichia coli TOP10;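 further: peptides expressed intracellularly from a pBAD plasmid library in pooled LB shake-flask culture, induced with 0.3% L-arabinose, DNA abundance read by NGS, three biological replicates, DESeq2 with apeglm shrinkage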
- testDetails: shrunken log2 fold change of peptide-encoding DNA abundance (4.5 h post-induction vs induction); higher = less antimicrobial activity (less host growth inhibition)
- testParameters: time post-induction: 4.5 h; library: site-saturation at positions 5, 18, 19, 20
Record 1 whenever shrunken log2 fold change is at -0.1 or higher; record -1 when lower.

recordSequence: RRIRMRPPRLPRPRPRPQKCPRP
classification: 1
//
recordSequence: RRIRARPPRLPRPRPRPTMKPRP
classification: 1
//
recordSequence: RRIRSRPPRLPRPRPRPYEVPRP
classification: 1
//
recordSequence: RRIRARPPRLPRPRPRPKQGPRP
classification: 1
//
recordSequence: RRIRFRPPRLPRPRPRPLYCPRP
classification: -1
//
recordSequence: RRIRNRPPRLPRPRPRPCFTPRP
classification: -1
//
recordSequence: RRIRARPPRLPRPRPRPPDWPRP
classification: 1
//
recordSequence: RRIRYRPPRLPRPRPRPSELPRP
classification: 1
//
recordSequence: RRIRARPPRLPRPRPRPCKRPRP
classification: 1
//
recordSequence: RRIRVRPPRLPRPRPRPGIEPRP
classification: -1
//
recordSequence: RRIRYRPPRLPRPRPRPKQMPRP
classification: 1
//
recordSequence: RRIRGRPPRLPRPRPRPKFAPRP
classification: 1
//
recordSequence: RRIRCRPPRLPRPRPRPNPMPRP
classification: -1
//
recordSequence: RRIRKRPPRLPRPRPRPMHHPRP
classification: -1
//
recordSequence: RRIRARPPRLPRPRPRPMVIPRP
classification: 1
//
recordSequence: RRIRGRPPRLPRPRPRPNKVPRP
classification: 1
//
recordSequence: RRIRLRPPRLPRPRPRPRHCPRP
classification: 1
//
recordSequence: RRIRWRPPRLPRPRPRPYAQPRP
classification: -1
//
recordSequence: RRIRGRPPRLPRPRPRPSTRPRP
classification: 1
//
recordSequence: RRIRRRPPRLPRPRPRPILSPRP
classification: 1
//
recordSequence: RRIRRRPPRLPRPRPRPRPCPRP
classification: 1
//
recordSequence: RRIRQRPPRLPRPRPRPTGGPRP
classification: 1
//
recordSequence: RRIRLRPPRLPRPRPRPEGCPRP
classification: 1
//
recordSequence: RRIRYRPPRLPRPRPRPYAWPRP
classification: -1
//
recordSequence: RRIRMRPPRLPRPRPRPCFCPRP
classification: 1
//
recordSequence: RRIRDRPPRLPRPRPRPRRAPRP
classification: 1
//
recordSequence: RRIRHRPPRLPRPRPRPSYTPRP
classification: -1
//
recordSequence: RRIRYRPPRLPRPRPRPGTKPRP
classification: 1
//
recordSequence: RRIRCRPPRLPRPRPRPMMDPRP
classification: -1
//
recordSequence: RRIRTRPPRLPRPRPRPEINPRP
classification: -1
//
recordSequence: RRIRTRPPRLPRPRPRPGLSPRP
classification: 1
//
recordSequence: RRIRWRPPRLPRPRPRPAHNPRP
classification: 1
//
recordSequence: RRIRWRPPRLPRPRPRPCKWPRP
classification: -1
//
recordSequence: RRIRCRPPRLPRPRPRPDYMPRP
classification: -1
//
recordSequence: RRIRSRPPRLPRPRPRPYPIPRP
classification: -1
//
recordSequence: RRIRVRPPRLPRPRPRPRLHPRP
classification: 1
//
recordSequence: RRIRERPPRLPRPRPRPCERPRP
classification: 1
//
recordSequence: RRIRQRPPRLPRPRPRPCVCPRP
classification: 1
//
recordSequence: RRIRHRPPRLPRPRPRPAHFPRP
classification: 1
//
recordSequence: RRIRRRPPRLPRPRPRPVEPPRP
classification: 1
//
recordSequence: RRIRGRPPRLPRPRPRPDRHPRP
classification: 1
//
recordSequence: RRIRLRPPRLPRPRPRPASEPRP
classification: 1
//
recordSequence: RRIRVRPPRLPRPRPRPMGRPRP
classification: 1
//
recordSequence: RRIRIRPPRLPRPRPRPLVYPRP
classification: -1
//
recordSequence: RRIRERPPRLPRPRPRPESHPRP
classification: 1
//
recordSequence: RRIRSRPPRLPRPRPRPQWLPRP
classification: -1
//
recordSequence: RRIRWRPPRLPRPRPRPQQHPRP
classification: 1
//
recordSequence: RRIRMRPPRLPRPRPRPLFNPRP
classification: -1
//
recordSequence: RRIRERPPRLPRPRPRPLYSPRP
classification: -1
//
recordSequence: RRIRYRPPRLPRPRPRPEFRPRP
classification: 1
//
recordSequence: RRIRYRPPRLPRPRPRPFPEPRP
classification: -1
//
recordSequence: RRIRGRPPRLPRPRPRPVINPRP
classification: 1
//
recordSequence: RRIRCRPPRLPRPRPRPEFAPRP
classification: 1
//
recordSequence: RRIRARPPRLPRPRPRPHLHPRP
classification: 1
//
recordSequence: RRIRYRPPRLPRPRPRPRESPRP
classification: 1
//
recordSequence: RRIRQRPPRLPRPRPRPRPKPRP
classification: 1
//
recordSequence: RRIRARPPRLPRPRPRPWQCPRP
classification: -1
//
recordSequence: RRIRKRPPRLPRPRPRPAVSPRP
classification: 1
//
recordSequence: RRIRVRPPRLPRPRPRPFITPRP
classification: -1
//
recordSequence: RRIRRRPPRLPRPRPRPDHPPRP
classification: 1
//
recordSequence: RRIRPRPPRLPRPRPRPVFGPRP
classification: 1
//
recordSequence: RRIRPRPPRLPRPRPRPLNFPRP
classification: -1
